Tested on: MS2 coat protein
assay.text: apparent KD of MS2 coat protein; designed switch direction (-1 OFF switch, 1 ON switch): -1; higher = weaker reporter binding
particulars: input ligand: FMN 200 uM
experimental.endpoint: apparent KD of MS2 coat protein (nM)
Answers are plain numbers, in nM.

chain	unit.of.measure	observed
UCGCUCCGUGUAGGAUAUCGCCGUACUAUUCGGCGAGAAGGACAUGAGGAUCACCCAUGUAUGUUAUUAUCACGCGUGGCGCAA [Design 59] (Eterna round: R96, puzzle: Exclusion NG 1)	nM	20.3
UCUUCACAUGAGGAUCACCCAUGUGAGGAUAUGGUUUCGCUGGCCGUAGCCAGUGGAACCAGAAGGCGCAUGAU [Mat - Exclusion 1 - JL Mod - D7] (Eterna round: R97, puzzle: Exclusion 1)	nM	21.5
GGUCGUAGACAGGAUAUGCGGCAAAUAAAUAAAGCAGAAGGGUCUACUUGAGGAUCACCCAAGUGGGCGGUUAA [jl-ex6-4.18 ViennaUCT mod] (Eterna round: R97, puzzle: Exclusion 6)	nM	103
GGCAUCGGAGGAUAUACUUAUGGUGAUGUUCGAAGCUUUCUACUUGAGGAUCACCCAAGUAGAAGGCCGAUGCC [jl-ex2.4.78 ViennaUCT mod] (Eterna round: R97, puzzle: Exclusion 2)	nM	5.28

Input line: # get_value(readout='apparent KD of MS2 coat protein', item= UGCGUUCAAGGAUAUACAUGAGGAUCACCCAUGUGGAUGGCCGUUGUGUGAACACUUAGUAGAAGGUGACACGG [Eternabot (L2) Solution 5] (Eterna round: R97, puzzle: Exclusion 3) )
Output line: 51.8
